# apparent KD of K4 kissing-loop reporter annotations
Tested on: K4 kissing-loop RNA reporter;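 further: bound reporter read as fluorescence of individual clusters on recovered sequencing chips by microscopy, with normalized cluster intensities fitted with a binding model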
Test: apparent KD of K4 kissing-loop reporter; higher = weaker reporter binding
Details: Eterna round: R107; input ligand: arginine 13.2 mM
# output: bare number, implied unit nM

Below, 4 sequences whose answers are already recorded.
# POLYMER_SEQUENCE, DISPLAY_UNIT, apparent KD of K4 kissing-loop reporter
data = [
    ("AGUGUGCAAAAGCACACUCAGUACAAGGACAAGGAUAUCUACUAAUAGAGAAGGUGUCCUUUCCUUAGUGAUGUUAAGGAACUGA [Omei KL FMN A SS D v3]", "nM", 500),
    ("ACGUCAUAUGUAAUGGUGGUUUCGAUCGAUACCAGUAGCGAGAGUUACCCUUGGCAGCGACAUGAGUGAUGUUCAUGUAUGAAGA [KL-XTheo-A2 #analogue]", "nM", 109),
    ("GUCUGCGUCUCGGCCGCCACUCACUAGUGAUGUUAGUAAGGAGCGACUAGAGAAGUCCAGUUGAUGAGGACCGGGAGACGCAAAA [Exclusion Tryptophan B GF4]", "nM", 84.3),
    ("GCCGUAGAUUGAAGGAGCGGGCCGUAGUGAUGUUACGCCAAGUUGUCUUUUAUUGAUGUGGCCCAGGUAGGUCGCAAUCUACGGC", "nM", 287),
]

Inquiry: Param item = UUAUCACCCUAAGGAUAUAGCUAAGUGAUGUUUAGCUCGUCGCAGGGUAAACACUAGGCCCAAAGGCUAGAAGGUAGCUGGUACC [theeternabot_exclusion_KL_FMN_B_35] ; retrieve measured apparent KD of K4 kissing-loop reporter.
Reply text: 66.9

Inquiry: Param item = GACGGGUUGCUGCUCAAUCCGUCGCAUGAUCGAGGACCGGUACGGCCGCCACUCGAGGCCAUGCCGUACGAGUGAUGUUCGUGCG [Xeerlaus] ; retrieve measured apparent KD of K4 kissing-loop reporter.
Reply text: 327

###

Tested on: MS2 coat protein
Assay: apparent KD of MS2 coat protein; designed switch direction (-1 OFF switch, 1 ON switch): -1; higher = weaker reporter binding
Conditions: input ligand: FMN 200 uM
EXPERIMENTAL_READOUT: apparent KD of MS2 coat protein (nM)
# output: bare number, implied unit nM

Below, 4 sequences whose answers are already recorded.
# POLYMER_SEQUENCE, TARGET_ENTITY, DISPLAY_UNIT, apparent KD of MS2 coat protein
measured = [
    ("GCGCAAACGCCAAAAGGCGAAACAACAUGAGGAUCACCCAUGUAGGAUAUCGAUUGCUUUGCAGUCGAGAAGGACAAAAUGCGC [JL ENG3 3.80 Mod 6] (Eterna round: R96, puzzle: Exclusion NG 3)", "MS2 coat protein", "nM", 11.6),
    ("GUCCUCUUGACAUGAGGAUCACCCAUGUUUUAUUUGUUAACUGAGGAUAUACUCUUAUUUUUUAUGUAGAAGGCAGUUUUGUUC [JR_ExcNG3_Sub023] (Eterna round: R96, puzzle: Exclusion NG 3)", "MS2 coat protein", "nM", 82.6),
    ("GUGUAGCAAGGAUAUACAUGAGGAUCACCCAUGUGAAUAAGAUAGAAUAAGAUAAAGUGUAGAAGGUGCAGUGU [Excluse me!!! 8 - Jieux - Exclusion 3] (Eterna round: R96, puzzle: Exclusion 3)", "MS2 coat protein", "nM", 44.9),
    ("GGAUCAUAUGUCAGGAUAUGCUGGACCUUGGUUCAGCAGAAGGGACAUGAGGAUCACCCAUGUCAUGGAGAUCC [Mat - Exclusion 4 - Eli Mod - D53] (Eterna round: R97, puzzle: Brourd's mod of Exclusion 4)", "MS2 coat protein", "nM", 270),
]

Inquiry: Param item = GUCACAUGGACAUAGGAUCACAUGAGGAUCACCCAUGUGACUAACAAGCUUUUUGCUCGUCUUAUGUCCAUGUGAAG [Stov1/15-A1] (Eterna round: R97, puzzle: Sensor, turn-off variant 1) ; retrieve measured apparent KD of MS2 coat protein.
Reply text: 13.2

Inquiry: Param item = GAAAACGAAGAGGAUAUUUGAUAUCAUAGCUUCAAAGAAGGCUUCACAUGAGGAUCACCCAUGUGAUCUUCAAU [Mat - Exclusion 6 - JL Mod - D19] (Eterna round: R97, puzzle: Exclusion 6) ; retrieve measured apparent KD of MS2 coat protein.
Reply text: 116

Inquiry: Param item = CCCGGGAGUCAGGAUAUCUCCGAGGAGUAUCAGAGAGAAGGGACUACUUGAGGAUCACCCAAGUAGGUGUAAAA [Enleteerre] (Eterna round: R97, puzzle: Exclusion 6) ; retrieve measured apparent KD of MS2 coat protein.
Reply text: 28.8

Inquiry: Param item = UUUGGCAGAGGAUAUACAUGAGGAUCACCCAUGUAUAAGUGGGAUGCGUGCAAAUACUGUAGAAGGCUGCCUCU [Eternabot (L2) Solution 66] (Eterna round: R97, puzzle: Exclusion 3) ; retrieve measured apparent KD of MS2 coat protein.
Reply text: 50.1

Inquiry: Param item = ACUUGUUGUCCUUGAUAUUACAUGAGGAUCACCCAUGUUAUUGUGAUUAUGAUGUGUAAGUUUGUUGCUCGUUUUAU [JR_STOV1_Sub066] (Eterna round: R97, puzzle: Sensor, turn-off variant 1) ; retrieve measured apparent KD of MS2 coat protein.
Reply text: 84.7

Inquiry: Param item = AAAAGGUGAGGAUAUCCGACGUUGCACUUGAGGAUCACCCAAGUUCCUCGCGUGCUUUUAGGAGAAGGCACAAAAC [Tegezaza] (Eterna round: R97, puzzle: Exclusion 5) ; retrieve measured apparent KD of MS2 coat protein.
Reply text: 77.3

###

# apparent KD of MS2 coat protein annotations
Test system: MS2 coat protein
Assay: apparent KD of MS2 coat protein; designed switch direction (-1 OFF switch, 1 ON switch): 1; higher = weaker reporter binding
Settings: Eterna round: R95; input ligand: none
# output: bare number, implied unit nM

Below, 3 sequences whose answers are already recorded.
# POLYMER_SEQUENCE, DISPLAY_UNIT, apparent KD of MS2 coat protein
rows = [
    ("GGAGCCGGCACUGAGGAUAUUCAUAUUAAAACAUGAGGAUCACCCAUGUAGGCCAGAAGGCCUUGGGAGAAGGCGGGUCGACUCG [Diqureveri - 1] (puzzle: Same State 2)", "nM", 371),
    ("CGUCCGGCCUGUGCUGGCCGGUGGCUUGUACAUGAGGAUCACCCAUGUUCUUGUGCUGGCGUUUUGCUCGUCUUGUG [salish99_mir208a_r3_020] (puzzle: Sensor for hsa-mir-208a)", "nM", 32.5),
    ("AAAGAUGGACAUGAGGAUCACCCAUGUGGAAAGUGAACAAGCUUUUGCUCGUGACAAAUGAACAAUCCAAUCCUAAA [mksensor] (puzzle: Sensor for hsa-mir-208a version 2)", "nM", 25),
]

Inquiry: Param item = UGAAUACAUGAGGAUCACCCAUGUCAACGUAGUCGAGGAUAUGGGCAGCCGUGAGGCGUACCAGAAGGCGAAGAGG [Mat - Same State 1 - Mod of JL - D4] (puzzle: Same State 1) ; retrieve measured apparent KD of MS2 coat protein.
Reply text: 132

Inquiry: Param item = UGUUAACAUGAGGAUCACCCAUGUCAAAUGAAUCGAGGAUAUGGGAAGUAAUAAGAGAAACUAGAAGGCGAAGUUG [Altered State 1-2 - Jieux - Same State 1] (puzzle: Same State 1) ; retrieve measured apparent KD of MS2 coat protein.
Reply text: 192

###

Test system: MS2 coat protein
Test: apparent KD of MS2 coat protein; higher = weaker reporter binding
Conditions: Eterna round: R107; input ligand: none
# apparent KD of MS2 coat protein annotations
# output: bare number, implied unit nM

Below, 5 sequences whose answers are already recorded.
# POLYMER_SEQUENCE, RECORDED_NUMBER
records = [
    ("CUAUAUAUAAGAAGGAGCGACAUGAGGAUCACCCAUGUCUACCACGUCGAAAGACGCUCAUGUCAGGUAGGUCGCUUAUAUAUAG [Astros-Eli-mod1]", 122),
    ("ACAUUUAACUGAAGGAGCGUGAUAAACAUGAGGAUCACCCAUGUACCACAGAUUUUCAGAUCACAGGUAGGUCGCAGACUAAUGA [JR_ExcArginiB_Sub014]", 11.1),
    ("GCUUGCUUGUAAGGUUCUGUCCGGCGUCGUCGAGGACCGGUACGGCCGCCACUCGCGCGUUUACAUGAGGAUCACCCAUGUCAUG [theeternabot_exclusion_MS2_Trp_A_49]", 40.6),
    ("GGAUAGGACACGGCCGCCACUACCUAGGAUACUAGCAACAUUUGGGUGCACGAGGAUCACCCGUGUAGGACCGGGUGUCCUAUCG", 72.5),
    ("AGCUCGCGUCCUCAAGCGUCAAAGACGCGUCGAGGACCGGUACGGCCGCCACUCGACCUGAGGAUCACCCAGGUUUAAGCGAGCA [TrypAX 6 #SwitchBubble #AlternativeMS2 #MS2Late #CuTurnoff]", 17.8),
]

Inquiry: Param item = AUGCCUAGUGGAAGGAGCGAGGGUCUUCUCAACAUGAGGAUCACCCAUGUUCUUUUAUACCCUCAGGUAGGUCGCCAUUGGGACA [Anenre] ; retrieve measured apparent KD of MS2 coat protein.
Reply text: 28.8

Inquiry: Param item = GUUGGUUUGCGAAGGAGCGGGUAUGUUGUCUACUUGAUCCUAACAUGAGGAUCACCCAUGUCCCAGGUAGGUCGCGCGGGCUUUG [12.aC] ; retrieve measured apparent KD of MS2 coat protein.
Reply text: 45.1

Inquiry: Param item = ACAUGAGGAUCACCCAUGUUUGAUGUUCCUCGAGGACCGGUACGGCCGCCACUCGAACGAGUGGCGCGCGCGCGCGCGCGCGCGC [aQa] ; retrieve measured apparent KD of MS2 coat protein.
Reply text: 12.5

Inquiry: Param item = AGGACAUCGAGAAGGAGCGCAUCCAAACCACACAUGAGGAUCACCCAUGUAUAAAUAUGCAUGCAGGUAGGUCGCUCGGCGUCUU [Leanerin] ; retrieve measured apparent KD of MS2 coat protein.
Reply text: 99

Inquiry: Param item = GCUAGGUCUACGGCCGCCACUAGACGUGGGUUAAACAUGAGGAUCACCCAUGUGCUACAGGCGCAUAGGACCGGGUAGACCUAGC [SSTB NP+V+V2 #9 +-Same Structure] ; retrieve measured apparent KD of MS2 coat protein.
Reply text: 494

Inquiry: Param item = UUCGUUUACGGAAGGAGCGACGGACAUCGGUGAUCUAUGCACAUGAGGAUCACCCAUGUACGUCAGGUAGGUCGCCGUUAAGAGU [XArg-B28] ; retrieve measured apparent KD of MS2 coat protein.
Reply text: 80.8

Inquiry: Param item = `UGUAUGGACUGAAGGAGCGGGAAAUAAACUUGAGGAUCACCCAGGUAAUAGGCGAAAGCCACCCAGGUAGGUCGCAGUCCAUACU` ; retrieve measured apparent KD of MS2 coat protein.
Reply text: 24.3

Inquiry: Param item = UCGACAAGAACAAUAAACAGCACUUGAGAAGGAGCGCGGAAAUCCGCAGGUAGGUCGCUCAUGUGUACAUGAGGAUCACCCAUGU [Inveonxeed] ; retrieve measured apparent KD of MS2 coat protein.
Reply text: 39.7
